# inhibition in vivo at 10 µmol/kg annotations
# System: Mus musculus
# measurement description: Antinociceptive activity in ICR mouse model of chronic constriction injury-induced neuropathic pain assessed as inhibition of mechanical allodynia at 10 umol/kg, ip administered 7 days post-surgery and measured after 3 hrs post-dose by Von Frey assay relative to control
# Type: functional
// return numeric value only (unit: %, not printed)

Recorded results for 5 compounds are shown here.
                            smiles_notation           tgt  value_reported
0  O=C(O)c1cc(-c2ccc(C3CCNCC3)cc2)cc(-n2cc(-c3ccc(C(F)(F)F)cc3)nn2)c1  Mus musculus            31.9
1  C#CCCCCN1CCC(c2ccc(-c3cc(C(=O)O)cc4cc(-c5ccc(C(F)(F)F)cc5)ccc34)cc2)CC1  Mus musculus             9.6
2  O=C(O)c1cc(O)c2ccc(-c3ccc(C(F)(F)F)cc3)cc2c1  Mus musculus            35.2
3  O=C(O)c1cc(-c2ccc(C3CCNCC3)cc2)c2ccc(-c3ccc(C(F)(F)F)cc3)cc2c1  Mus musculus            78.6
4  CCC(=O)N1CCC(c2ccc(-c3cc(C(=O)O)cc4cc(-c5ccc(C(F)(F)F)cc5)ccc34)cc2)CC1  Mus musculus            55.7

Need inhibition in vivo at 10 µmol/kg of O=C(O)c1cc(-c2ccc(C3CCNCC3)cc2)cc(-c2cn(-c3ccc(C(F)(F)F)cc3)nn2)c1 , thanks. 55.1

Need inhibition in vivo at 10 µmol/kg of NCCCNC(=O)c1ccc(-c2cc(C(=O)O)cc(-n3cc(-c4ccc(C(F)(F)F)cc4)nn3)c2)s1 , thanks. 30.9
